Test system: Veronica persica (VERPE)
PROTOCOL_NOTES: Herbicidal post-emergence action (Table B12)
Format: in vivo
EXPERIMENTAL_CONTEXT: dosage 320 g/ha; visual rating about 3 weeks after treatment; 100% = plants have died, 0% = like control plants
Reported Post-emergence action against Veronica persica (VERPE) values are given for each entry in this list.
Units required after the number.

Illustrative cases are given below, each with its answer.
>>> df
                            compound_string  recorded_measurement
0   Cc1cccc(Oc2ccc(Cl)cn2)c1-c1cc(C(F)F)no1                  100%
1  Cn1nc(-c2c(F)cccc2Oc2ccc(Cl)cn2)cc1C(F)F                   90%

Then there is this compound:
Ask: Please provide the recorded Post-emergence action against Veronica persica (VERPE) for CCc1ccc(Oc2cccc(CC)c2-c2cc(C(F)F)no2)nc1 , tested on Veronica persica (VERPE).
Result: 100%

---

Tested on: Setaria viridis (SETVI)
PROTOCOL_NOTES: Herbicidal pre-emergence action, test C (Table C4)
Type: in vivo
EXPERIMENTAL_CONTEXT: dosage 1280 g/ha; visual scoring after about 3 weeks; 100% = plants have died, 0% = like control plants
Catalogue of Pre-emergence action against Setaria viridis (SETVI) readings, one per entry.
All answers are understood in %, so give the number only.

>>> df
                            compound_string      experimental_target  recorded_measurement
0       Fc1cccc(Oc2ccccn2)c1-c1cc(C(F)F)no1  Setaria viridis (SETVI)                   100
1  N#Cc1ccc(Oc2cccc(F)c2-c2cc(C(F)F)on2)nc1  Setaria viridis (SETVI)                    90

Proceed to the following item.
Ask: Item: FC(F)(F)c1ccc(-c2ccccc2Oc2ccc(Cl)cn2)nc1 Test system: Setaria viridis (SETVI) Read-out: Pre-emergence action against Setaria viridis (SETVI) Value: ?
Result: 100

---

Test system: Poa annua (POAAN)
PROTOCOL_NOTES: Herbicidal pre-emergence action, test C (Table C3)
Type: in vivo
EXPERIMENTAL_CONTEXT: dosage 320 g/ha; visual scoring after about 3 weeks; 100% = plants have died, 0% = like control plants
PROPERTY_NAME: Pre-emergence action against Poa annua (POAAN) (%)
Please give a number only; it is taken to be in %.

Ask: I am curious: what Pre-emergence action against Poa annua (POAAN) value has been reported for FC(F)c1cc(-c2ccc(Br)cc2Oc2ccc(Cl)cn2)on1 ?
Result: 90

Ask: Another: Cc1ccc(-c2cc(C(F)F)no2)c(Oc2ccc(Cl)cn2)c1
Result: 90

Ask: Also need FC(F)c1cc(-c2ccccc2Oc2ccc(Cl)cn2)on1 , thanks.
Result: 100

Ask: Likewise for COc1ccc(-c2cc(C(F)F)no2)c(Oc2ccc(Cl)cn2)c1 ?
Result: 100

Ask: Same for FC(F)c1cc(-c2ccccc2Oc2ccccn2)on1
Result: 100
